target: UniProt P26358
experimentalDetails: Inhibition of DNMT1 (unknown origin) using semi-methylated DNA substrate preincubated for 15 mins followed by substrate and [3H-SAM] addition and measured after 60 mins by microbeta scintillation counting assay
Recorded IC50, one value per entry.
Include the unit right after the number.

Below, 2 compounds whose answers are already recorded.
[
  {
    "smilesText": "CC(C)(C)c1ccc2c(c1)c1cc(C(C)(C)C)ccc1n2C[C@@H](C(=O)O)N1C(=O)c2ccccc2C1=O",
    "IC50": "8.15 µM"
  },
  {
    "smilesText": "O=C(O)[C@@H](Cn1c2ccc(Cl)cc2c2cc(Cl)cc(Cl)c21)N1C(=O)c2ccccc2C1=O",
    "IC50": "0.777 µM"
  }
]

Assay UniProt P26358, sample O=C(O)[C@H](Cn1c2ccc(Cl)cc2c2cc(Cl)cc(Cl)c21)N1C(=O)c2ccccc2C1=O , IC50 read: 40 µM

###

target: DNA (cytosine-5)-methyltransferase 1 (Homo sapiens, UniProt P26358)
Sequence (P26358 whole entry): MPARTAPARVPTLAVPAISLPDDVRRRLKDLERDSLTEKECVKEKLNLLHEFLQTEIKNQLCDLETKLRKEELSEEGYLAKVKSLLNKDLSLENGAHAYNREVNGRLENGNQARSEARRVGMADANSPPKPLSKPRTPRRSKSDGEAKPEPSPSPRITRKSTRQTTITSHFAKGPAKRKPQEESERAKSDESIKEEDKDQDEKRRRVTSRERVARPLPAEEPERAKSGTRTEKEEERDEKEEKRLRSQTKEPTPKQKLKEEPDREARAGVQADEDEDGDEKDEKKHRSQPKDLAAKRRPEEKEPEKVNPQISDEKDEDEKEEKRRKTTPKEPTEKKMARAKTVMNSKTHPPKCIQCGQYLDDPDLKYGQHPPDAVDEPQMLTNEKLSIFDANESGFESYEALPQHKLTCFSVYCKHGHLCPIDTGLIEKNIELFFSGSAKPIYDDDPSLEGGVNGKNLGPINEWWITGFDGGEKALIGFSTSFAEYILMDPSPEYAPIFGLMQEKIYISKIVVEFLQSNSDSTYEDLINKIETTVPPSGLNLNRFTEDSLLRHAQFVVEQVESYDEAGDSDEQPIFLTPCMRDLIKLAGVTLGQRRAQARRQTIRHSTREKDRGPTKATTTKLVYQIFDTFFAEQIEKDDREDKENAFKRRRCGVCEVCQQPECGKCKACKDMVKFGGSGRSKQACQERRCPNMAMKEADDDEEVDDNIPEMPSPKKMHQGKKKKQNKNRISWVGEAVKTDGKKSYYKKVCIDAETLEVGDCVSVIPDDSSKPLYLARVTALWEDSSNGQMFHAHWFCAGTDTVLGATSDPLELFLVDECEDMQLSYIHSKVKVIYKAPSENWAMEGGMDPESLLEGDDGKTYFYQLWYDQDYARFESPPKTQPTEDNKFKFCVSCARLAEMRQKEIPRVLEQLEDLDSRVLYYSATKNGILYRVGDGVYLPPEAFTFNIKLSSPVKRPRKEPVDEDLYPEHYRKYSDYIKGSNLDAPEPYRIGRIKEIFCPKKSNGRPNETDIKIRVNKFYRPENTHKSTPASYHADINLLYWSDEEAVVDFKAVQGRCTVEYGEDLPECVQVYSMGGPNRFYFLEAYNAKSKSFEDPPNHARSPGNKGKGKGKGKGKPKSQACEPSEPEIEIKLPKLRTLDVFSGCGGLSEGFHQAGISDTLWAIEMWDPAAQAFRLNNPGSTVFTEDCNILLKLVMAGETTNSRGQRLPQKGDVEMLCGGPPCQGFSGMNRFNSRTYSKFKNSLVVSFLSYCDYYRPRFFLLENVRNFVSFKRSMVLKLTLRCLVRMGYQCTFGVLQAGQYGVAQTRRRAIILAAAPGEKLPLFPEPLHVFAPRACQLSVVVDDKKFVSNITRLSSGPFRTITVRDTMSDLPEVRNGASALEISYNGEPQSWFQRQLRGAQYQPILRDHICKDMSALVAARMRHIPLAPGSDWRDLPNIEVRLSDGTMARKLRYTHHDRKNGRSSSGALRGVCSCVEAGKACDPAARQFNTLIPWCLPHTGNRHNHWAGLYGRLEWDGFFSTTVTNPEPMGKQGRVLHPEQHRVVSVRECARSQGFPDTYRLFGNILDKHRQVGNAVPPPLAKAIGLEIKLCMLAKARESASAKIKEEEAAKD
experimentalDetails: Binding affinity to human DNMT1 expressed in Escherichia coli assessed as equilibrium dissociation constant by SPR analysis
recordedMetric: pKd
Kindly note that pKd refers to -log10 of the concentration in mol/L and answer with the value alone.

Here is how some compounds turned out for pKd.
[
  {
    "compound": "O=C(O)[C@@H](Cn1c2ccc(Cl)cc2c2cc(Cl)cc(Cl)c21)N1C(=O)c2ccccc2C1=O",
    "recordedMetric": "pKd",
    "assayResult": 6.90
  },
  {
    "compound": "O=C(O)C(Cn1c2ccc(Br)cc2c2cc(Br)ccc21)N1C(=O)c2ccccc2C1=O (racemic)",
    "recordedMetric": "pKd",
    "assayResult": 5.93
  },
  {
    "compound": "O=C(O)C(Cn1c2ccc(I)cc2c2cc(I)ccc21)N1C(=O)c2ccccc2C1=O (racemic)",
    "recordedMetric": "pKd",
    "assayResult": 6.84
  }
]

Lab note: measured pKd of CC(C)(C)c1ccc2c(c1)c1cc(C(C)(C)C)ccc1n2C[C@H](C(=O)O)N1C(=O)c2ccccc2C1=O was 6.18

Lab note: CC(C)(C)c1ccc2c(c1)c1cc(C(C)(C)C)ccc1n2C[C@@H](C(=O)O)N1C(=O)c2ccccc2C1=O gave pKd of 6.17

Lab book: pKd of O=C(O)[C@H](Cn1c2ccc(Cl)cc2c2cc(Cl)cc(Cl)c21)N1C(=O)c2ccccc2C1=O noted as 6.74

The compound identified as O=C(O)[C@H](Cc1c[nH]c2ccccc12)N1C(=O)c2ccccc2C1=O registered its pKd at 4.02

Lab note: O=C(O)C(Cn1c2ccc(Cl)cc2c2cc(Cl)cc(Cl)c21)N1C(=O)c2ccccc2C1=O (racemic) gave pKd of 6.80

pKd measured on CC(C)(C)c1ccc2c(c1)c1cc(C(C)(C)C)ccc1n2CC(C(=O)O)N1C(=O)c2ccccc2C1=O (racemic) = 6.08

###

experimentalDetails: Inhibition of recombinant human DNA methyltransferase using DNA as substrate incubated for 2 hrs by agarose gel assay
recordedMetric: IC50

So, O=C(O)[C@H](Cc1c[nH]c2ccccc12)N1C(=O)c2ccccc2C1=O ? Its IC50 was 115 nM

###

inhibition for assorted molecules
target: DNA (cytosine-5)-methyltransferase 1 (Homo sapiens, UniProt P26358)
experimentalDetails: Inhibition of DNMT1 (unknown origin) at 250 uM using semi-methylated DNA substrate preincubated for 15 mins followed by substrate and [3H-SAM] addition and measured after 60 mins by microbeta scintillation counting assay relative to control
conditionSummary: time 75.0 min

Study these solved cases before continuing.
[
  {
    "molecule": "O=C(O)C(Cn1c2ccc(Cl)cc2c2cc(Cl)cc(Cl)c21)N1C(=O)c2ccccc2C1=O (racemic)",
    "inhibition": "> 75%"
  },
  {
    "molecule": "O=C(O)C(Cn1c2ccc(Cl)cc2c2cc(Cl)ccc21)N1C(=O)c2ccccc2C1=O (racemic)",
    "inhibition": "> 75%"
  },
  {
    "molecule": "O=C(O)C(Cn1c2ccc(Br)cc2c2cc(Br)ccc21)N1C(=O)c2ccccc2C1=O (racemic)",
    "inhibition": "> 75%"
  },
  {
    "molecule": "O=C(O)C(Cn1c2ccc(I)cc2c2cc(I)ccc21)N1C(=O)c2ccccc2C1=O (racemic)",
    "inhibition": "> 75%"
  },
  {
    "molecule": "Cc1ccc2c(c1)c1cc(C)ccc1n2CC(C(=O)O)N1C(=O)c2ccccc2C1=O (racemic)",
    "inhibition": "> 75%"
  }
]

Shift focus to the following entry.
Lab note: O=C(O)C(Cn1c2cc(Br)ccc2c2ccc(Br)cc21)N1C(=O)c2ccccc2C1=O (racemic) gave inhibition of > 75%

###

target: DNA (cytosine-5)-methyltransferase 1 (Homo sapiens)
experimentalDetails: Binding affinity to human DNMT1 expressed in Escherichia coli assessed as response unit at 10 uM by SPR analysis
Calls of active or inactive are those of the source. No cut-off for these calls is given here.
recordedMetric: Activity

# count of solved cases: 8
[
  {
    "molecule": "CC(C)(C)c1ccc2c(c1)c1cc(C(C)(C)C)ccc1n2CC(C(=O)O)N1C(=O)c2ccccc2C1=O (racemic)",
    "target": "DNA (cytosine-5)-methyltransferase 1 (Homo sapiens)",
    "recordedMetric": "Activity",
    "assayResult": "52.7 RU"
  },
  {
    "molecule": "O=C(O)C(Cn1c2ccc(Br)cc2c2cc(Br)ccc21)N1C(=O)c2ccccc2C1=O (racemic)",
    "target": "DNA (cytosine-5)-methyltransferase 1 (Homo sapiens)",
    "recordedMetric": "Activity",
    "assayResult": "Active"
  },
  {
    "molecule": "O=C(O)C(Cn1c2ccccc2c2ccccc21)N1C(=O)c2ccccc2C1=O (racemic)",
    "target": "DNA (cytosine-5)-methyltransferase 1 (Homo sapiens)",
    "recordedMetric": "Activity",
    "assayResult": "25.1 RU"
  },
  {
    "molecule": "O=C(O)C(Cn1c2cc(Br)ccc2c2ccc(Br)cc21)N1C(=O)c2ccccc2C1=O (racemic)",
    "target": "DNA (cytosine-5)-methyltransferase 1 (Homo sapiens)",
    "recordedMetric": "Activity",
    "assayResult": "Active"
  },
  {
    "molecule": "Cc1ccc2c(c1)c1cc(C)ccc1n2CC(C(=O)O)N1C(=O)c2ccccc2C1=O (racemic)",
    "target": "DNA (cytosine-5)-methyltransferase 1 (Homo sapiens)",
    "recordedMetric": "Activity",
    "assayResult": "Active"
  },
  {
    "molecule": "O=C(O)C(Cn1c2ccc(Cl)cc2c2cc(Cl)cc(Cl)c21)N1C(=O)c2ccccc2C1=O (racemic)",
    "target": "DNA (cytosine-5)-methyltransferase 1 (Homo sapiens)",
    "recordedMetric": "Activity",
    "assayResult": "65.5 RU"
  },
  {
    "molecule": "O=C(O)C(Cn1c2ccc(I)cc2c2cc(I)ccc21)N1C(=O)c2ccccc2C1=O (racemic)",
    "target": "DNA (cytosine-5)-methyltransferase 1 (Homo sapiens)",
    "recordedMetric": "Activity",
    "assayResult": "57.9 RU"
  },
  {
    "molecule": "O=C(O)[C@H](Cc1c[nH]c2ccccc12)N1C(=O)c2ccccc2C1=O",
    "target": "DNA (cytosine-5)-methyltransferase 1 (Homo sapiens)",
    "recordedMetric": "Activity",
    "assayResult": "2.2 RU"
  }
]

Here's the next entry for you.
Entry under test: O=C(O)C(Cn1c2ccc(Cl)cc2c2cc(Cl)ccc21)N1C(=O)c2ccccc2C1=O (racemic) . Its Activity was Active

###

target: DNA (cytosine-5)-methyltransferase 1 (Homo sapiens, UniProt P26358)
experimentalDetails: Binding affinity to human DNMT1 expressed in Escherichia coli by SPR analysis
recordedMetric: Kd (µM)
Enter your answer as a number in µM; do not include the unit.

Summary for this compound, O=C(O)[C@H](Cc1c[nH]c2ccccc12)N1C(=O)c2ccccc2C1=O : Kd is 94.6

###

target: DNA (cytosine-5)-methyltransferase 1 (Homo sapiens, UniProt P26358)
experimentalDetails: Binding affinity to human DNMT1 in presence of 10 uM SAM by SPR analysis
recordedMetric: Kd
Please answer using a numeric value trailed by its unit.

# Kd (compound: O=C(O)C(Cn1c2ccc(Br)cc2c2cc(Br)ccc21)N1C(=O)c2ccccc2C1=O (racemic) ) is 4.09 µM

###

Item-by-item account of inhibition
target: DNA (cytosine-5)-methyltransferase 1 (Homo sapiens, UniProt P26358)
experimentalDetails: Inhibition of DNMT1 (unknown origin) at 250 uM using semi-methylated DNA substrate preincubated for 15 mins followed by substrate and [3H-SAM] addition and measured after 60 mins by microbeta scintillation counting assay relative to control
conditionSummary: time 75.0 min

Below, 4 molecules whose answers are already recorded.
[
  {
    "molecule": "CC(C)(C)c1ccc2c(c1)c1cc(C(C)(C)C)ccc1n2CC(C(=O)O)N1C(=O)c2ccccc2C1=O (racemic)",
    "recordedMetric": "inhibition",
    "assayResult": "> 75%"
  },
  {
    "molecule": "O=C(O)C(Cn1c2ccccc2c2cc(OCC3CO3)ccc21)N1C(=O)c2ccccc2C1=O (racemic)",
    "recordedMetric": "inhibition",
    "assayResult": "< 50%"
  },
  {
    "molecule": "O=C(O)C(Cn1c2ccccc2c2ccccc21)N1C(=O)c2ccccc2C1=O (racemic)",
    "recordedMetric": "inhibition",
    "assayResult": "< 50%"
  },
  {
    "molecule": "O=C(O)C(Cn1c2ccccc2c2cc(Br)ccc21)N1C(=O)c2ccccc2C1=O (racemic)",
    "recordedMetric": "inhibition",
    "assayResult": "< 50%"
  }
]

Lab book: inhibition of O=C(O)C(Cn1c2ccccc2c2cc(I)ccc21)N1C(=O)c2ccccc2C1=O (racemic) noted as < 50%
